# System: A498
# PROCEDURE_SUMMARY: NCI tumour cell line growth inhibition, 48 h
Activity calls are given as the source filed them. Rule as the data show it: active = GI50 up to about 1.1 µM and inactive = higher.
PROPERTY_MEASURED: GI50

Reported GI50 for Cc1ccc(-c2cc(-c3ccc(Cl)cc3)nc(/N=C3\C(=O)N(CN4CCOCC4)c4ccc(Cl)cc43)n2)cc1 was 20.5 µM (inactive)

# compound O=C1NC(=S)NC(=O)C1C(c1ccccc1[N+](=O)[O-])C1C(=O)NC(=S)NC1=O.c1ccncc1 ; its GI50 = > 100 µM (inactive)

Looking up O=Cc1ccc(-c2cccs2)s1 , I see its GI50 listed as 2.46 µM (inactive)

The recorded GI50 for entry N#Cc1sc2c(c1OC(=O)c1ccc(Cl)cc1)c(=O)n(-c1ccccc1)c(=S)n2-c1ccccc1 equals 21.5 µM (inactive)

// S=C(S)N1CCN(c2ccccc2)CC1 : GI50 value = > 100 µM (inactive)

* * *

# Test system: A549
# PROCEDURE_SUMMARY: NCI tumour cell line growth inhibition, 48 h
Active and inactive are the calls of the source. No stated cut-off is given here; in the data, active = GI50 up to about 1.1 µM and inactive = higher.
Field: GI50. Provide a value for each of the molecules that follow.

Item: COCC#C[C@@]1(O)CCCCC1CC(OC)OC (stereo partly specified) | GI50: > 100 µM (inactive)

// GI50 value for COc1ccc2c(OC)c3ccoc3nc2c1O : > 100 µM (inactive)

// GI50 value for CSC(=N)N1N=C2/C(=C/c3ccccc3)CCC[C@H]2[C@H]1c1ccccc1 : 4.49 µM (inactive)

Memo: O=C(CCc1ccccc1)On1nnc2ccccc2c1=O , reported GI50: > 100 µM (inactive)

The reported GI50 of the molecule Cc1ccc([N+](=O)[O-])c2c(NCCC[N+](C)(C)[O-])ccnc12 was 33.2 µM (inactive)

The molecule C/C(=N\O)c1ccc2cc(Br)c3ccccc3c2c1 showed GI50 equal to 37 µM (inactive)

* * *

# Test system: LOX IMVI
# PROCEDURE_SUMMARY: NCI tumour cell line growth inhibition, 48 h
The source made the active and inactive calls. No stated cut-off is given here; in the data, active = GI50 up to about 1.1 µM and inactive = higher.
PROPERTY_MEASURED: GI50

The recorded GI50 for COc1ccc(C2S/C(=C\c3ccccc3O)C(=O)N2NC(=O)Cc2ccccc2)cc1 (stereo unspecified) is > 100 µM (inactive)

Consider CC(C)(C)c1ccc(C(O)c2ccc(C(C)(C)C)cc2)cc1 . Its measured GI50 is 14.7 µM (inactive)

Summary for this compound, COc1ccc2c(c1)OCCC1=C2SCC2(C)CCN=C12 (stereo unspecified) : GI50 is > 100 µM (inactive)

Record Cn1c(-c2cccc([N+](=O)[O-])c2)[n+](C)c2ccccc21 , field GI50: > 100 µM (inactive)

Item: COC(=O)[C@@H](NS(=O)(=O)CC12CCC(CC1)C2(C)C)C(C)(C)C | GI50: > 100 µM (inactive)

COc1ccc(C2C3C(=O)C=CC(=O)C3[C@@H]2C)cc1OC (stereo partly specified) has a reported GI50 of 42.3 µM (inactive)

* * *

# Tested on: CAKI-1
# PROCEDURE_SUMMARY: NCI tumour cell line growth inhibition, 48 h
Active and inactive are the calls of the source. No stated cut-off is given here; in the data, active = GI50 up to about 1.1 µM and inactive = higher.
PROPERTY_MEASURED: GI50

Per the record, COc1cc(C)cc(OC)c1/C=C/C(=O)O has GI50 of > 100 µM (inactive)

GI50 recorded for this compound, CCOC(=O)c1cccnc1C(OC(C)=O)OC(C)=O , is > 100 µM (inactive)

What the record says about CCC1NC(=O)C1NC(=O)OC (stereo unspecified) : GI50 is > 100 µM (inactive)

The measured GI50 associated with C=C(C)C(=O)OC1C[C@H](COC(C)=O)C2CC=C(CO)C2C2OC(=O)C(=C)[C@H]12 (stereo partly specified) reads 41.6 µM (inactive)

Lab note: CCN(CC)CCCNc1c2c(Cl)cc(Cl)cc2nc2nc(O)nc(C)c12 gave GI50 of > 100 µM (inactive)

Value of measured GI50 for the entry COc1ccc([C@@]23CCC(=O)C[C@@H]2N(C)CC3)cc1OC : > 100 µM (inactive)

Entry under test: OC1c2ccccc2C(O)C2OC12 (stereo unspecified) . Its GI50 was > 100 µM (inactive)

Given item COc1cc2c(cc1O)CC1c3c(cc(O)c(OC)c3-2)CCN1C (stereo unspecified) , the value recorded as its GI50 is > 100 µM (inactive)

Short answer for COc1cc(C)cc(C(=O)/C=C/c2ccccc2)c1O : GI50 was 19.5 µM (inactive)

Sample CC1=NC(=Cc2cccc(Cl)c2)C(=O)N1n1c(-c2ccccc2)nc2ccccc2c1=O ; GI50 observed: 22.8 µM (inactive)

Sample CC1=NN(c2cccc(Cl)c2)C2(C1)C(Cl)C(=O)N2c1nc2ccccc2s1 (stereo unspecified) ; GI50 observed: 33.1 µM (inactive)

* * *

Record form. Attribute: GI50. Fill in for each entry.
# Tested on: ACHN
# PROCEDURE_SUMMARY: NCI tumour cell line growth inhibition, 48 h
Activity calls are given as the source filed them. Cut-off read from the data, not from the text of the source: active = GI50 up to about 1.1 µM and inactive = higher.

The molecule listed as CC(C)COC(=O)c1ccc(/N=C\c2ccc(/C=N/c3ccc(C(=O)OCC(C)C)cc3)cc2)cc1 has a reported GI50 of > 100 µM (inactive)

Input CC(C)(C)OC(=O)NC(Cc1ccc(OCc2ccccc2)cc1)C(=O)NC(COCc1ccccc1)C(=O)Oc1c(Cl)c(Cl)c(Cl)c(Cl)c1Cl (stereo not given) . Output GI50: 24.4 µM (inactive)

# molecule CCOC(=O)CC[C@H](NC(=O)c1nc[nH]c1/N=N/N(C)C)C(=O)OCC ; its GI50 = > 100 µM (inactive)

Please fill in: GI50 reported for O=c1c2ccccc2nc(-c2ccc(Br)cc2)n1NC1OC(CO)C(O)C(O)C1O (stereo not given) = > 100 µM (inactive)

Noted for O=C(NC1=C(Cl)C(=O)c2ccccc2C1=O)c1ccccc1 : its GI50 reads 20.8 µM (inactive)

get_value(item= O=c1[nH]nc(-c2ccccc2)n1O , readout=GI50) returns > 100 µM (inactive)

Value of measured GI50 for the entry O=C(CCc1ccccc1)On1nnc2ccccc2c1=O : > 100 µM (inactive)

Entry under test: O=C1CCC2COc3ccc(O)c1c32 (stereo not given) . Its GI50 was > 100 µM (inactive)

Short answer for COc1cc(/C=C(\NC(=O)c2ccccc2)c2nc3cncnc3[nH]2)cc(OC)c1OC : GI50 was > 100 µM (inactive)

The measured GI50 associated with COC(=O)C1(Cc2ccc3c(c2)CCC3)Cc2cc3c(cc2C1=O)CCC3 (stereo not given) reads 37.2 µM (inactive)

* * *

# Test system: SK-MEL-28
# PROCEDURE_SUMMARY: NCI tumour cell line growth inhibition, 48 h
Active and inactive are the calls of the source. No stated cut-off is given here; in the data, active = GI50 up to about 1.1 µM and inactive = higher.
Please respond with reported GI50 for every item in the list.

Reported SK-MEL-28 GI50 for item CCC1NC(=O)C1NC(=O)OC (centres undefined) was > 100 µM (inactive)

Sample CCOc1ccc(-c2oc(/C=N/NS(=O)(=O)c3ccc(C)cc3)c([N+](=O)[O-])c2-c2ccc(OCC)cc2)cc1 , system: SK-MEL-28. Its GI50 is 12.4 µM (inactive)

Record for O=C(NC1=C(Cl)C(=O)c2ccccc2C1=O)c1ccccc1 under target or system SK-MEL-28: GI50 reported as 44.8 µM (inactive)

Reported GI50 (SK-MEL-28) for entry O=[N+]([O-])c1cccnc1NCC1(CO)CC(Cc2ccccc2)C1 (centres undefined) is > 100 µM (inactive)

Field GI50 (SK-MEL-28), entry CC(C)=Cc1cc(C(=O)Nc2ccc(Cl)c(Cl)c2)nc(N)n1 : > 100 µM (inactive)

Form: item Cc1cc(OP2(=O)NCc3ccncc3O2)ccc1Cl (centres undefined) ; test system SK-MEL-28; GI50: > 100 µM (inactive)

Form field GI50 for item CC(C)(C)OC(=O)NC(Cc1ccc(OCc2ccccc2)cc1)C(=O)NC(COCc1ccccc1)C(=O)Oc1c(Cl)c(Cl)c(Cl)c(Cl)c1Cl (centres undefined) on SK-MEL-28: 25.1 µM (inactive)

Lab note: compound CCOC(=O)N1CCC(N[C@@H]2c3cc4c(cc3[C@@H](c3cc(OC)c(O)c(OC)c3)[C@H]3C(=O)OC[C@@H]32)OCO4)CC1 tested on SK-MEL-28; recorded GI50 was 9.29 µM (inactive)

Hey, SK-MEL-28 data for O=C1NC(=S)NC(=O)C1C(c1ccccc1[N+](=O)[O-])C1C(=O)NC(=S)NC1=O.c1ccncc1 : GI50 came out at > 100 µM (inactive)

* * *

I'd be grateful if you could share measured GI50 for these entries.
# Tested on: RPMI-8226
# PROCEDURE_SUMMARY: NCI tumour cell line growth inhibition, 48 h
Calls of active or inactive are those of the source. No stated cut-off is given here; in the data, active = GI50 up to about 1.1 µM and inactive = higher.

Memo: O=c1[nH]nc(-c2ccc([N+](=O)[O-])cc2)n1/N=C/c1ccc([N+](=O)[O-])cc1 , reported GI50: 38.5 µM (inactive)

Summary for this compound, CCCOC1OC(CS(=O)(=O)O)C(O)C(O)C1O (stereo not drawn) : GI50 is > 100 µM (inactive)

The value of GI50 measured for the compound CCOC(=O)C(=O)C=P(c1ccccc1)(c1ccccc1)c1ccccc1 turned out to be > 100 µM (inactive)

The compound listed as O=C(N/N=C1\C(=O)Nc2ccc(Br)cc21)/C(O)=C/C(=O)c1ccc(Cl)cc1 has a reported GI50 of 19.4 µM (inactive)

get_value(item= CC1=NC(=O)C(C)(c2ccccc2)N1CCc1ccccc1 (stereo not drawn) , readout=GI50) returns 63.1 µM (inactive)

Sure, the documented GI50 for CN(C)C(=O)Oc1ccc(C(=S)Nc2ccccc2)cc1Br is 22.2 µM (inactive)

// GI50 lookup, compound = COC(=O)C1(C(=O)OC)N=C(C)OC1c1ccccc1O (stereo not drawn) , result: > 100 µM (inactive)

GI50 measured on COc1ccc2[nH]cc(C(=O)C(=O)NC34CC5CC(CC(C5)C3)C4)c2c1 = 4.69 µM (inactive)

Kindly note the recorded GI50 for COC(=O)Cc1c([C@H]2[C@H](CC(=O)OC)c3ccccc3N2C(=O)C(F)(F)F)[nH]c2ccccc12 , which is 17.7 µM (inactive)

For NCCNC(=O)c1cccc2cc3ccccc3nc12 the compound record lists GI50 as 3.85 µM (inactive)

The compound listed as CCC1=CCN(c2ccc(C)cc2)OC1c1ccc(OC)cc1 (stereo not drawn) has a reported GI50 of 43.3 µM (inactive)

Recorded GI50 (compound C1CN2N3CCCC23C1 (stereo not drawn) ): > 100 µM (inactive)

GI50 reading for Cc1cc(OP2(=O)NCc3ccncc3O2)ccc1Cl (stereo not drawn) : > 100 µM (inactive)

Reported GI50 ( CCOC(=O)C(NC(=O)c1ccccc1)(Nc1ccc(Cl)cc1C(F)(F)F)C(F)(F)F (stereo not drawn) ) = 2.96 µM (inactive)

response.value for O=C(O)CC(Cc1ccccc1Cl)C(=O)O (stereo not drawn) (field: GI50) = > 100 µM (inactive)

Reported GI50 for COc1cc(C2c3cc4c(cc3OC(NNC(N)=O)C2C)OCO4)cc(OC)c1OC (stereo not drawn) was 0.167 µM (active)

Reported GI50 for CN(C)CC(/C(Cc1ccccc1)=N\NC(=O)c1ccncc1)c1ccccc1 (stereo not drawn) was 16.4 µM (inactive)

Kindly note the recorded GI50 for CCCCCCCCCCC(O)CCCCCCC(=O)O (stereo not drawn) , which is 10.2 µM (inactive)

Field GI50 (entry COC(=O)c1ccccc1/C=C1\Cc2ccc3c(c2C1=O)CCCC3 ) reads > 100 µM (inactive)

Recorded result, COc1ccc(/C=N/NC(=O)CSc2nc(-c3ccccc3)c(-c3ccccc3)[nH]2)cc1OC , GI50: 20.3 µM (inactive)

Consider Cc1nc2n(c1/C=C1/C(=O)Nc3cccc(Cl)c31)CCS2 . Its measured GI50 is > 100 µM (inactive)

The reported GI50 of the compound Nc1ncc(/C=N/O)c(NCC2(CO)CC(CCc3ccccc3)C2)n1 (stereo not drawn) was 5.73 µM (inactive)

For this compound ( COC(=O)C1(Cc2ccc3c(c2)CCC3)Cc2cc3c(cc2C1=O)CCC3 (stereo not drawn) ), measured GI50 is 8.02 µM (inactive)

Origin of measurements: ChEMBL document CHEMBL1201862
